experiment: NCI Yeast Anticancer Drug Screen. Data for the rad50 strain (AID 155);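 further: 0% = growth of vehicle-only cultures of the same strain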; conditions: S. cerevisiae rad50 strain growth inhibition; at 50.0 µM; hits give high values
The panel holds about 79,000 compounds, 15% with a hit somewhere; the sample as a whole holds those more often. Active and inactive are the calls of the source. No stated cut-off is given here; in the data, active means growth inhibition above about 70%; inactive means the rest.
experimental readout: growth inhibition

| molecule | experimental readout | data value |
| --- | --- | --- |
| NNc1ccccc1Cl | growth inhibition | 89.2% (active) |
| CCC[CH2][Sn]([CH2]CCC)([O]C(=O)C(N)CSC)[O]C(=O)C(N)CSC (stereo not drawn) | growth inhibition | 90% (active) |
| CC[PH+](CC)CC.CC[PH+](CC)CC.[Au] | growth inhibition | 89.2% (active) |

Hey, just so you know, these numbers are from PubChem BioAssay (NCI).
